# System: CAKI-1 renal
# experimental_protocol: NCI tumour cell line growth inhibition, 48 h
Would you kindly list TGI for each of these compounds?

Some compounds with known TGI results, for comparison:
COc1cc2c3c(n(CCCNCC(OC)OC)c(=O)c2cc1OC)-c1cc2c(cc1C3=O)OCO2 :: 17.2 µM
COc1c(OC)c(N)c2cc(C)c(=O)c(C)cc2c1N :: > 100 µM
CC(C)(C)[Si](C)(C)OCC1OC(n2ccc(=O)[nH]c2=O)C(O[Si](C)(C)C(C)(C)C)[C@@]12O[C@H]2C(N)=O (stereo partly drawn) :: 28.2 µM
CC1(C)C2CCC(N)(C2)C1N (stereo not drawn) :: > 100 µM
COc1cc(C(O)c2nc3ccccc3s2)cc(OC)c1OC (stereo not drawn) :: 93.9 µM
C(=C\c1nccs1)/c1cccc(/C=C/c2nccs2)n1 :: > 50 µM
Fc1cccc2cc3ccc4cccc5ccc(c12)c3c45 :: > 100 µM
O=C1c2ccc3c4c5ccc(c24)C(=O)N1CCCOCCCCOCCCNCc1ccc(cc1)CNCCCOCCCCOCCCN(C3=O)C5=O :: 1.71 µM

Please go through the list and note TGI for each compound.
1. Cc1ccc2cc3c(ccc4ccccc43)c3c2c1CC3
2. CN(CC(=O)O)c1ccc(/C=C/c2ccnc3ccccc23)cc1

["> 100 µM", "66.1 µM"]

Please go through the list and note TGI for each compound.
1. COC(=O)C1CC=C(SC(=O)c2ccccc2)N1C(=O)c1ccccc1 (stereo not drawn)
2. O=C(CCCCCCSc1nc(-c2ccccc2)cc(-c2ccccc2)n1)NO
3. N#CCC(=O)c1cc(OCc2cc(OCc3ccc(Br)cc3)cc(OCc3ccc(Br)cc3)c2)cc(OCc2cc(OCc3ccc(Br)cc3)cc(OCc3ccc(Br)cc3)c2)c1
4. CN(C(=O)c1ccc(Cl)cc1)C(=S)N1CCN(c2ccccn2)CC1

["> 100 µM", "6.39 µM", "> 100 µM", "> 100 µM"]
